# Test system: 855422-203-R-J1-PDC complex spheroid viability
# Assay Explanation: Anticancer human tumor 855422-203-R-J1-PDC patient-derived bladder carcinoma cell line growth inhibition [POLQ]; active means viability on the fitted dose curve at most 10% of control; inactive means the rest
# Test Parameters: second compound 0.316 µM; first compound 0.316 µM
Hi there, use one of these labels in your reply, thanks! active, inactive

**Q:** Query: recorded result category for O=C(c1cc(Cc2n[nH]c(=O)c3ccccc23)ccc1F)N1CCN(C(=O)C2CC2)CC1 + COC1C(OC(N)=O)C(O)C(Oc2ccc3c(O)c(NC(=O)c4ccc(O)c(CC=C(C)C)c4)c(=O)oc3c2C)OC1(C)C in this test
**A:** inactive

**Q:** Query: recorded result category for O=C(c1cc(Cc2n[nH]c(=O)c3ccccc23)ccc1F)N1CCN(C(=O)C2CC2)CC1 + Cc1cccc(N(C)C(=O)C2C(O)CCN2c2nc(C)cc(C(F)(F)F)c2C#N)c1 in this test
**A:** inactive

**Q:** Query: recorded result category for COc1ccc([C@@H](O)c2cc(-c3ncnc4cc(N5CCOCC5)ccc34)c(F)cc2Cl)nn1 + Nc1ccc(C#CCN(C(=O)Cc2ncc(C(F)(F)F)cc2C(F)(F)F)c2ccc(F)cc2)nn1 in this test
**A:** inactive

**Q:** Query: recorded result category for CC(C)n1c(=O)n(C)c2cnc3cc(F)c(-c4ccc(OCCCN5CCCCC5)nc4)cc3c21 + Nc1ccc(C#CCN(C(=O)Cc2ncc(C(F)(F)F)cc2C(F)(F)F)c2ccc(F)cc2)nn1 in this test
**A:** inactive

**Q:** Query: recorded result category for COc1cccc2c1C(=O)c1c(O)c3c(c(O)c1C2=O)CC(O)(C(=O)CO)CC3OC1CC(N)C(O)C(C)O1 (stereo unspecified) + Nc1ccc(C#CCN(C(=O)Cc2ncc(C(F)(F)F)cc2C(F)(F)F)c2ccc(F)cc2)nn1 in this test
**A:** active

**Q:** Query: recorded result category for C=CC(=O)N1CCN(c2nc(=O)n(-c3c(C)ccnc3C(C)C)c3nc(-c4c(O)cccc4F)c(F)cc23)C(C)C1 (stereo unspecified) + Cc1cccc(N(C)C(=O)C2C(O)CCN2c2nc(C)cc(C(F)(F)F)c2C#N)c1 in this test
**A:** inactive

**Q:** Query: recorded result category for C#Cc1c(F)ccc2cc(O)cc(-c3ncc4c(N5CC6CCC(C5)N6)nc(OCC56CCCN5CC(F)C6)nc4c3F)c12 (stereo unspecified) + COC1C(OC(N)=O)C(O)C(Oc2ccc3c(O)c(NC(=O)c4ccc(O)c(CC=C(C)C)c4)c(=O)oc3c2C)OC1(C)C in this test
**A:** inactive

**Q:** Query: recorded result category for Nc1ccn(C2OC(CO)C(O)C2(F)F)c(=O)n1 (stereo unspecified) + Cc1cccc(N(C)C(=O)C2C(O)CCN2c2nc(C)cc(C(F)(F)F)c2C#N)c1 in this test
**A:** inactive

**Q:** Query: recorded result category for Nc1ccn(C2OC(CO)C(O)C2(F)F)c(=O)n1 (stereo unspecified) + Nc1ccc(C#CCN(C(=O)Cc2ncc(C(F)(F)F)cc2C(F)(F)F)c2ccc(F)cc2)nn1 in this test
**A:** inactive

**Q:** Query: recorded result category for Nc1ccn(C2OC(CO)C(O)C2(F)F)c(=O)n1 (stereo unspecified) + COC1C(OC(N)=O)C(O)C(Oc2ccc3c(O)c(NC(=O)c4ccc(O)c(CC=C(C)C)c4)c(=O)oc3c2C)OC1(C)C in this test
**A:** inactive

**Q:** Query: recorded result category for COc1cccc2c1C(=O)c1c(O)c3c(c(O)c1C2=O)CC(O)(C(=O)CO)CC3OC1CC(N)C(O)C(C)O1 (stereo unspecified) + Cc1cccc(N(C)C(=O)C2C(O)CCN2c2nc(C)cc(C(F)(F)F)c2C#N)c1 in this test
**A:** active

---

# Test system: 855422-203-R-J1-PDC complex spheroid viability
# Assay Explanation: Anticancer human tumor 855422-203-R-J1-PDC cell line growth inhibition [POLQ]; active = viability on the fitted dose curve at most 10% of control; inactive = the rest;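 further: spheroids exposed to compounds for seven days before readout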
# Test Parameters: second compound 1 µM; first compound 3.16 µM
Hi there, use one of these labels in your reply, thanks! active, inactive

**Q:** Query: recorded result category for COc1cc2cc(C(=O)CCC(=O)O)sc2cc1OC + Cc1cccc(N(C)C(=O)C2C(O)CCN2c2nc(C)cc(C(F)(F)F)c2C#N)c1 in this test
**A:** inactive

**Q:** Query: recorded result category for CCc1cc2c(N3CCc4c(cc(Cn5ccnc5)cc4-c4cn(C)nc4C(F)(F)F)C3=O)cc(C)nc2c(OC)n1 + COC1C(OC(N)=O)C(O)C(Oc2ccc3c(O)c(NC(=O)c4ccc(O)c(CC=C(C)C)c4)c(=O)oc3c2C)OC1(C)C in this test
**A:** inactive

**Q:** Query: recorded result category for CCc1cc2c(N3CCc4c(cc(Cn5ccnc5)cc4-c4cn(C)nc4C(F)(F)F)C3=O)cc(C)nc2c(OC)n1 + Cc1cccc(N(C)C(=O)C2C(O)CCN2c2nc(C)cc(C(F)(F)F)c2C#N)c1 in this test
**A:** inactive

**Q:** Query: recorded result category for CCc1cc2c(N3CCc4c(cc(Cn5ccnc5)cc4-c4cn(C)nc4C(F)(F)F)C3=O)ccnc2c(OC)n1 + Nc1ccc(C#CCN(C(=O)Cc2ncc(C(F)(F)F)cc2C(F)(F)F)c2ccc(F)cc2)nn1 in this test
**A:** inactive

**Q:** Query: recorded result category for C=CC(=O)N1CCN(c2nc(=O)n(-c3c(C)ccnc3C(C)C)c3nc(-c4c(O)cccc4F)c(F)cc23)C(C)C1 (stereo not given) + Nc1ccc(C#CCN(C(=O)Cc2ncc(C(F)(F)F)cc2C(F)(F)F)c2ccc(F)cc2)nn1 in this test
**A:** inactive

**Q:** Query: recorded result category for O=C(c1cc(Cc2n[nH]c(=O)c3ccccc23)ccc1F)N1CCN(C(=O)C2CC2)CC1 + COC1C(OC(N)=O)C(O)C(Oc2ccc3c(O)c(NC(=O)c4ccc(O)c(CC=C(C)C)c4)c(=O)oc3c2C)OC1(C)C in this test
**A:** inactive

**Q:** Query: recorded result category for O=c1[nH]cc(F)c(=O)[nH]1 + Cc1cccc(N(C)C(=O)C2C(O)CCN2c2nc(C)cc(C(F)(F)F)c2C#N)c1 in this test
**A:** inactive

**Q:** Query: recorded result category for CNCc1ccc(-c2[nH]c3cc(F)cc4c3c2CCNC4=O)cc1 + Cc1cccc(N(C)C(=O)C2C(O)CCN2c2nc(C)cc(C(F)(F)F)c2C#N)c1 in this test
**A:** inactive

**Q:** Query: recorded result category for CCc1cc2c(N3CCc4c(cc(Cn5ccnc5)cc4-c4cn(C)nc4C(F)(F)F)C3=O)cc(C)nc2c(OC)n1 + Nc1ccc(C#CCN(C(=O)Cc2ncc(C(F)(F)F)cc2C(F)(F)F)c2ccc(F)cc2)nn1 in this test
**A:** inactive

**Q:** Query: recorded result category for CCCS(=O)(=O)Nc1ccc(F)c(C(=O)c2c[nH]c3ncc(-c4ccc(Cl)cc4)cc23)c1F + Cc1cccc(N(C)C(=O)C2C(O)CCN2c2nc(C)cc(C(F)(F)F)c2C#N)c1 in this test
**A:** inactive

**Q:** Query: recorded result category for COc1ccc([C@@H](O)c2cc(-c3ncnc4cc(N5CCOCC5)ccc34)c(F)cc2Cl)nn1 + COC1C(OC(N)=O)C(O)C(Oc2ccc3c(O)c(NC(=O)c4ccc(O)c(CC=C(C)C)c4)c(=O)oc3c2C)OC1(C)C in this test
**A:** inactive

**Q:** Query: recorded result category for O=C(c1cc(Cc2n[nH]c(=O)c3ccccc23)ccc1F)N1CCN(C(=O)C2CC2)CC1 + Cc1cccc(N(C)C(=O)C2C(O)CCN2c2nc(C)cc(C(F)(F)F)c2C#N)c1 in this test
**A:** inactive

**Q:** Query: recorded result category for COc1cc(C2c3cc4c(cc3C(OC3OC5COC(C)OC5C(O)C3O)C3COC(=O)C23)OCO4)cc(OC)c1O (stereo not given) + Cc1cccc(N(C)C(=O)C2C(O)CCN2c2nc(C)cc(C(F)(F)F)c2C#N)c1 in this test
**A:** active

**Q:** Query: recorded result category for C#Cc1c(F)ccc2cc(O)cc(-c3ncc4c(N5CC6CCC(C5)N6)nc(OCC56CCCN5CC(F)C6)nc4c3F)c12 (stereo not given) + COC1C(OC(N)=O)C(O)C(Oc2ccc3c(O)c(NC(=O)c4ccc(O)c(CC=C(C)C)c4)c(=O)oc3c2C)OC1(C)C in this test
**A:** inactive

**Q:** Query: recorded result category for COc1cccc2c1C(=O)c1c(O)c3c(c(O)c1C2=O)CC(O)(C(=O)CO)CC3OC1CC(N)C(O)C(C)O1 (stereo not given) + COC1C(OC(N)=O)C(O)C(Oc2ccc3c(O)c(NC(=O)c4ccc(O)c(CC=C(C)C)c4)c(=O)oc3c2C)OC1(C)C in this test
**A:** active

**Q:** Query: recorded result category for O=C(Nc1ccc(O)c(NS(=O)(=O)c2ccc(F)cc2)c1)c1ccc(-c2ccccc2)cc1 + COC1C(OC(N)=O)C(O)C(Oc2ccc3c(O)c(NC(=O)c4ccc(O)c(CC=C(C)C)c4)c(=O)oc3c2C)OC1(C)C in this test
**A:** inactive

**Q:** Query: recorded result category for COc1ccc([C@@H](O)c2cc(-c3ncnc4cc(N5CCOCC5)ccc34)c(F)cc2Cl)nn1 + Cc1cccc(N(C)C(=O)C2C(O)CCN2c2nc(C)cc(C(F)(F)F)c2C#N)c1 in this test
**A:** inactive

**Q:** Query: recorded result category for CCc1cc2c(N3CCc4c(cc(Cn5ccnc5)cc4-c4cn(C)nc4C(F)(F)F)C3=O)ccnc2c(OC)n1 + Cc1cccc(N(C)C(=O)C2C(O)CCN2c2nc(C)cc(C(F)(F)F)c2C#N)c1 in this test
**A:** inactive

**Q:** Query: recorded result category for O=C(Nc1ccc(O)c(NS(=O)(=O)c2ccc(F)cc2)c1)c1ccc(-c2ccccc2)cc1 + Cc1cccc(N(C)C(=O)C2C(O)CCN2c2nc(C)cc(C(F)(F)F)c2C#N)c1 in this test
**A:** inactive

**Q:** Query: recorded result category for CCCS(=O)(=O)Nc1ccc(F)c(C(=O)c2c[nH]c3ncc(-c4ccc(Cl)cc4)cc23)c1F + Nc1ccc(C#CCN(C(=O)Cc2ncc(C(F)(F)F)cc2C(F)(F)F)c2ccc(F)cc2)nn1 in this test
**A:** inactive
